target: MbtAtb (H10MbtA^opt) (Mycobacterium tuberculosis); assay type: biochemical; details: read-out: IC50 (H10MbtA^opt-dependent signal, salicyl-AMS fragments)
Sequence (P71716 whole entry, looked up, the tested form may be a part): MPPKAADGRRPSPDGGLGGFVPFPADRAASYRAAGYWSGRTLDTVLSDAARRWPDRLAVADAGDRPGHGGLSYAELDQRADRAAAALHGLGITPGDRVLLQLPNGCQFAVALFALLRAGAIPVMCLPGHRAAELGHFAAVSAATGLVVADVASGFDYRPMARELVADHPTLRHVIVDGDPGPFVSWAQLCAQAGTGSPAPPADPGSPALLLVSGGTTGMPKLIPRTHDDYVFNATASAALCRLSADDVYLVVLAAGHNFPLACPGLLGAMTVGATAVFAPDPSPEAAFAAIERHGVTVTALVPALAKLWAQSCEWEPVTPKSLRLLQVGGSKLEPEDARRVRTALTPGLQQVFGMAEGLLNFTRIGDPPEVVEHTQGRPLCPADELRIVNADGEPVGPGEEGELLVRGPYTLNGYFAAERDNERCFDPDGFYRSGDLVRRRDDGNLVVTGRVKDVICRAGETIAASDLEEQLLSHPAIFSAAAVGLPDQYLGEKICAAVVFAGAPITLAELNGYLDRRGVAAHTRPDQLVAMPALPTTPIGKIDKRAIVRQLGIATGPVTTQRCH

>  <compound>
O=C(NS(=O)(=O)O)c1ccccc1O [compound 8, salicyl-sulfamate]

>  <IC50>
~1000 µM

$$$$
